- Tested on: giant foxtail
- experimental.details: Test A pre-/postemergence herbicide test
- Type: in vivo, Setaria faberii
- assay.context: preemergence, 500 g ai/ha; 0 to 100 scale
readout.type: Plant response rating, Foxtail, Giant

1) Cc1ccc(C2CNC(=O)C2C(=O)Nc2ccc(F)cc2F)cc1F (racemic)	90
2) O=C1NCC(c2cc(F)cc(F)c2)C1C(=O)Nc1ccc(F)cc1F (racemic)	90
3) Cc1cc(C2CNC(=O)C2C(=O)Nc2ccccc2F)ccc1F (racemic)	90
4) O=C1NCC(c2ccc(Cl)c(Cl)c2)C1C(=O)Nc1ccccc1F (racemic)	90
5) CS(=O)(=O)c1ccccc1NC(=O)C1C(=O)NCC1c1cccc(C(F)(F)F)c1 (racemic)	90
6) O=C1NCC(c2cccc(Cl)c2)C1C(=O)Nc1ccccc1F (racemic)	90
7) O=C1NCC(c2cccc(C(F)(F)F)c2)C1C(=O)Nc1nnc(C(F)(F)F)s1 (racemic)	0
8) COc1cc(C2CNC(=O)C2C(=O)Nc2ccc(F)cc2F)ccc1F (racemic)	60
9) O=C1NCC(c2ccc(F)c(F)c2)C1C(=O)Nc1cccc(C(F)(F)F)c1 (racemic)	30
10) CCc1cccc(C2CNC(=O)C2C(=O)Nc2ccccc2F)c1 (racemic)	90
11) O=C1NCC(c2ccc3c(c2)OC(F)(F)O3)C1C(=O)Nc1ccccc1F (centres unmarked)	90
12) N#Cc1cccc(C2CNC(=O)C2C(=O)Nc2ccccc2F)c1 (racemic)	80
13) O=C1NCC(c2ccc3c(c2)OC(F)(F)O3)C1C(=O)Nc1ccccc1C(F)(F)F (racemic)	90
14) O=C1NCC(c2ccc(F)cc2)C1C(=O)Nc1ccc(F)c(F)c1F (racemic)	90
15) O=C1NCC(c2ccc(F)c(F)c2)C1C(=O)Nc1ccccc1C(F)(F)F (racemic)	90
16) O=C1NCC(c2ccsc2)C1C(=O)Nc1ccccc1F (racemic)	0
17) O=C1NCC(c2ccc(F)c(Cl)c2)C1C(=O)Nc1ccccc1F (centres unmarked)	90
18) Cc1cccc(C2CNC(=O)C2C(=O)Nc2ccccc2F)c1 (racemic)	30
19) COc1cccc(C2CNC(=O)C2C(=O)Nc2ccccc2F)c1 (racemic)	70
20) O=C1NCC(c2cccc(OC(F)(F)F)c2)C1C(=O)Nc1ccccc1F (centres unmarked)	90
21) Cc1cc(C2CNC(=O)C2C(=O)Nc2cccc(F)c2F)ccc1F (racemic)	90
22) O=C1NCC(c2ccc(F)c(F)c2)C1C(=O)Nc1ccccc1OC(F)(F)F (centres unmarked)	90
23) Cc1ccc(C2CNC(=O)C2C(=O)Nc2cccc(F)c2F)cc1F (racemic)	90
